- Tested on: Human immunodeficiency virus 1
- experiment: Antiviral activity against HIV1 isolates with reverse transcriptase Y188L mutation in human MT4 cells assessed as inhibition of virus-induced cytopathogenicity by MTT assay
- Type: functional, organism-based
- experimental setup: Human immunodeficiency virus 1, MT4
pEC50: −log10 of the molar value.
Quick reference for pEC50 among some compounds
measured quantity: pEC50

• Cc1c(Cc2c(Cl)cccc2Cl)nc(SCC(=O)c2ccccc2)[nH]c1=O = 5.05
• CCc1c(Cc2c(Cl)cccc2Cl)nc(SCC(=O)c2ccc(F)cc2)[nH]c1=O = 4.44
• CC(C)c1c(Cc2c(F)cccc2Cl)nc(SCC(=O)c2ccccc2)[nH]c1=O = 5.11
• CC(C)c1c(Cc2c(Cl)cccc2Cl)nc(SCC(=O)c2ccccc2)[nH]c1=O = 5.26
• COc1ccc(C(=O)CSc2nc(Cc3c(F)cccc3F)c(C(C)C)c(=O)[nH]2)cc1 = 4.83
